Target: T1, hCD137 (FXa digested) (human, UniProt Q07011 24-186)
T1 construct: Factor Xa digestion and Protein A removed the Fc; also called human CD137 extracellular domain
T1 sequence (Q07011 other isoform, or with tags, fused parts or gaps limits assumed): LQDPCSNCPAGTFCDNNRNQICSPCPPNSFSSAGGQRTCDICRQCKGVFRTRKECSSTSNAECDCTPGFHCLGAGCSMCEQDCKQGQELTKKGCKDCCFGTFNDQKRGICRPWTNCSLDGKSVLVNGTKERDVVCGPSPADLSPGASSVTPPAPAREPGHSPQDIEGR
Assay: SPR, no small molecule
Would you mind labelling by binding amount? At or over 3 RU is 1, under is 0.

dBBAT021-P253 (antibody, human IgG1, lambda, V domains shown) VH: EVQLVESGGDLVKPGGGLRLSCAASGFTFSSYTMNWVRQAPGKGLEWVSSISSRSNYRDYADSVKGRFTISRDNAKNSLYLQMNSLRAEDTAVYYCARYGGKNILNWVFDYWGQGTLVTVSS VL: QSALTQPPSASGSPGQTVTISCTGTSSDVGFYNYVSWYQQHPGKAPKLMIYEVSKRPSGVPDRFSGSKSGNTASLTVSGLQAEDEADYFCSSYSSDTHVGFGGGTKLTVLG = 0

Input: Is it the case that dBBAT042-P253 (antibody, human IgG1, lambda, V domains shown) VH: EVQLVESGGDLVKPGGGLRLSCAASGFTFSSHTMNWVRQAPGKGLEWISSISSRSNYKSYADSVKGRFTISRDNAKNSLYLQMNSLRAEDTAVYYCARYGHKNMHNWVFDYWGQGTLVTVSS VL: QSALTQPPSASGSPGQTVTISCTGTSSDVGFYNYVSWYQQHPGKAPKLMIYEVSKRPSGVPDRFSGSKSGNTASLTVSGLQAEDEADYFCSTYRYDQNVAFGGGTKLTVLG has binding amount reaching or exceeding 3 RU?
Output: 0

Input: Decide: is the reported value of binding amount for dBBAT091-P253 (antibody, human IgG1, lambda, V domains shown) VH: EVQLVESGGDLVKPGGGLRLSCAASGFTFSSYTMNWVRQAPGKGLEWVSSISSRSNYIDYADSVKGRFTISRDNAKNSLYLQMNSLRAEDTAVYYCARFGKKNDMNWVFDYWGQGTLVTVSS VL: QSALTQPPSASGSPGQTVTISCTGTSTDVGFYNYVSWYQQHPGKAPKLMIYEGSKRPSGVPDRFSGSKSGNTASLTVSGLQAEDEADYFCSSYEYTESVLFGGGTKLTVLG equal to or greater than 3 RU?
Output: 0

Input: Decide: binding amount of dBBAT112-P253 (antibody, human IgG1, lambda, V domains shown) VH: EVQLVESGGDLVKPGGGLRLSCAASGFTFSTYTMNWVRQAPGKGLEWVSSISSRSNYKFYADSVKGRFTISRDNAKNSLYLQMNSLRAEDTAVYYCARFGVKNNMNWVFDYWGQGTLVTVSS VL: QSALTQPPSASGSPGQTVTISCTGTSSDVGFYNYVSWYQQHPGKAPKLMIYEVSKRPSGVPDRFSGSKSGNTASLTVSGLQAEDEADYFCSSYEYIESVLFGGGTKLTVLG >= 3 RU?
Output: 1

Input: Please indicate if the recorded binding amount for dBBAT119-P253 (antibody, human IgG1, lambda, V domains shown, also called dBBAT119H-P253/dBBAT119L-LamLib) VH: EVQLVESGGDLVKPGGGLRLSCAASGFTFSTFTMNWVRQAPGKGLEWVSSISSRSNYKSYADSVKGRFTISRDNAKNSLYLQMNSLRAEDTAVYYCARYGAKNFMNWVFDYWGQGTLVTVSS VL: QSALTQPPSASGSPGQTVTISCTGTSTDVGFYNYVSWYQQHPGKAPKLMIYYTSKRPSGVPDRFSGSKSGNTASLTVSGLQAEDEADYFCSSYRYDHQVSFGGGTKLTVLG meets or exceeds 3 RU.
Output: 1

Input: Has dBBAT037-P253 (antibody, human IgG1, lambda, V domains shown) VH: EVQLVESGGDLVKPGGGLRLSCAASGFTFSGYTMNWVRQAPGKGLEWVSSISSRSNYIDYADSVKGRFTISRDNAKNSLYLQMNSLRAEDTAVYYCARFGLKNSLNWVFDYWGQGTLVTVSS VL: QSALTQPPSASGSPGQTVTISCTGTSTDVGFYNYVSWYQQHPGKAPKLMIYETSKRPSGVPDRFSGSKSGNTASLTVSGLQAEDEADYFCSSYSGASILLFGGGTKLTVLG a recorded binding amount greater than or equal to 3 RU?
Output: 1
